experiment: NCI Yeast Anticancer Drug Screen. Data for the mlh1 rad18 strain (AID 175); details: S. cerevisiae mlh1 rad18 strain growth inhibition; at 5.0 µM (retest, dose inferred, filed as 0.5); hits give high values
Compounds without any hit were thinned out: in the full panel of roughly 79,000, 15% have a hit. Active and inactive are the calls of the source. Rule as the data show it: active = growth inhibition above about 70%; inactive = the rest.
Outcome measure: growth inhibition

Compound	Result
N#C/C(=C/c1c(Cl)cccc1Cl)C(N)=O	34% (inactive)
COc1ccc(N2C(=O)CC(Cl)C2=O)cc1 (configuration not stated)	-137% (inactive)
Cc1cccc(/C=N\NC(=S)N2CCCCC2)n1	98% (active)
NC(N)=NCCCS(=O)(=O)Nc1ccc(Nc2c3ccccc3nc3cc([N+](=O)[O-])ccc23)cc1	-8% (inactive)
Oc1ccccc1N=Cc1ccc(Cl)cc1	41% (inactive)
O=C1C=CC(=Nc2ccccc2)c2ccccc21	27% (inactive)
CCN(CC)CCNC(=O)c1nn(-c2ccc(Cl)cc2)c2c1CCc1cc(OC)ccc1-2	-1% (inactive)
O=C(NCCCCCN1CCC2(CCCCC2)CC1)C(C1CCCCC1)C1CCCCC1	-3% (inactive)
Cc1c(-c2ccccc2)[nH]c2ccccc12	38% (inactive)
c1ccc(N2N=C3N(c4ccccc4)C2N3c2ccccc2)cc1	38% (inactive)
O=C1c2ccccc2C(=O)c2cc(S(=O)(=O)Nc3ccccc3)ccc21	77% (active)
O=C(/C=C/c1cccc2ccccc12)c1ccc(Cl)cc1	35% (inactive)
O=C1c2cccc3cc([N+](=O)[O-])cc(c23)C(=O)N1CCN1CCCC1	3% (inactive)
NP1(Oc2ccc(F)cc2)=NP(N)(Oc2ccc(F)cc2)=NP(Oc2ccc(F)cc2)(Oc2ccc(F)cc2)=N1 (configuration not stated)	17% (inactive)
COC(=O)c1n[nH]c(C)c1N=NN(C)CCC#N	-49% (inactive)
CC(C)c1[nH]nc(C(N)=O)c1N=NN(C)C	-101% (inactive)
CN(C)CCN1C(=O)c2cccc3cc([N+](=O)[O-])cc(c23)C1=O	6% (inactive)
CCNc1ccc2c(c1)C(=O)N(OS(C)(=O)=O)C2=O	-3% (inactive)
O=C(CNS(=O)(=O)Cc1ccccc1)NNc1ccccc1	71% (active)
CN(Cc1cnc2nc(N)nc(N)c2n1)c1ccc(C(=O)NC(CCC(=O)O)C(=O)O)c2ccccc12 (configuration not stated)	-13% (inactive)
O=Nn1c2ccccc2c2cc([N+](=O)[O-])ccc21	39% (inactive)
Cc1cc(Cl)nc2nc(Cl)c(N)cc12	11% (inactive)
CCn1ncc(N=O)c1N	33% (inactive)
C=C(CCCO)[C@@H]1CC[C@@](C)(O)[C@H]1C	36% (inactive)
C/C(=N\NC(=S)NNC(=S)N(C)c1ccccc1)c1ccccn1	27% (inactive)
O=Nc1ccc(Nc2ccccc2)cc1	26% (inactive)
CN[C@@H]1C[C@H]2O[C@@](C)([C@@H]1OC)n1c3ccccc3c3c4c(c5c6ccccc6n2c5c31)C(=O)N[C@@H]4O	2% (inactive)

Hello, the source for this data is PubChem BioAssay (NCI), in case you need it.
